Where do the numbers come from? From ChEMBL document CHEMBL1131926.

Below is a list of entries, each paired with its recorded Inhibition value.
# Test system: Cavia porcellus
# test: Extra vivo inhibitory activity of compound (0.3 mg/kg p.o.) on the aggregation of guinea pig platelets induced by U-46619 (1 uM)
# Type: functional

# compound, Inhibition (%)
data = [
    ("O=C([O-])Cc1ccc2c(c1)CC(CNS(=O)(=O)c1ccc3ccccc3c1)C2.[Na+] (configuration not stated)", 100),
    ("O=C([O-])Cc1ccc2c(c1)CC(CCNS(=O)(=O)c1ccc(Cl)cc1)C2.[Na+] (configuration not stated)", 96),
    ("O=C([O-])Cc1ccc2c(c1)CC(CNS(=O)(=O)c1ccc(Cl)cc1)C2.[Na+] (configuration not stated)", 100),
    ("O=C([O-])c1ccc2c(c1)CC(CNS(=O)(=O)c1ccc(Cl)cc1)C2.[Na+] (configuration not stated)", 58),
    ("O=C(O)Cc1ccc(CCNS(=O)(=O)c2ccc(Cl)cc2)cc1", 55),
    ("O=C([O-])CCc1ccc2c(c1)CC(CNS(=O)(=O)c1ccc(Cl)cc1)C2.[Na+] (configuration not stated)", 98),
    ("O=C([O-])CCCc1ccc2c(c1)CC(CNS(=O)(=O)c1ccc(Cl)cc1)C2.[Na+] (configuration not stated)", 100),
]
